System: GH3-TRE-Luc cell line
Conditions: read-out: AC50 (uM) modified / 1000; Tox21_110001=Tox21_202286; viability, 1 nM T3 present, 24 h
Measured Metric: CC50

compound="CCCOC(=O)c1cc(O)c(O)c(O)c1 [Propyl gallate]" experimental_result="61.7 µM"

###

Assay: in vitro
Details: rat, gh3-tre-luc cells, AC50 (uM) modified / 1000
Measured Metric: CC50 at 24 h

molecule=CCCCOCN(C(=O)CCl)c1c(CC)cccc1CC measured_metric="CC50 at 24 h" experimental_result="49.4 µM"
molecule="C=CC(C)(O)CC/C=C(/C)CCC=C(C)C (stereo not drawn) [cis-Nerolidol]" measured_metric="CC50 at 24 h" experimental_result="> 90 µM"
molecule=OCC(CO)n1cnc(-c2ccc(F)cc2)c1-c1ccnc(Oc2ccccc2)n1 measured_metric="CC50 at 24 h" experimental_result="> 90 µM"
molecule=CCO[Si](C)(OCC)OCC measured_metric="CC50 at 24 h" experimental_result="> 90 µM"
molecule=C[C@H]1COc2c(C3(N)CC3)c(F)cc3c(=O)c(C(=O)O)cn1c23 measured_metric="CC50 at 24 h" experimental_result="> 50 µM"
molecule=CC(=O)[C@H]1[C@H](C#N)C[C@H]2[C@@H]3CC=C4C[C@@H](O)CC[C@]4(C)[C@H]3CC[C@@]21C measured_metric="CC50 at 24 h" experimental_result="> 60 µM"
molecule="CCCCCCCCCCCCOC(=O)c1cc(O)c(O)c(O)c1 [Lauryl gallate]" measured_metric="CC50 at 24 h" experimental_result="2.89 µM"
molecule="CCOc1cccc(C2(N3CCN(c4ccccc4)CC3)CCC(C)CC2)c1 (stereo not drawn)" measured_metric="CC50 at 24 h" experimental_result="> 90 µM"
molecule="CC1CCC(=O)C1=O (stereo not drawn)" measured_metric="CC50 at 24 h" experimental_result="> 100 µM"

From: paper PMC6792352
